Listed here are binders together with their documented pEC50.
Biological target: T1, human alpha2-Antiplasmin (human, UniProt P08697 40-491)
T1 construct: Bought (antibodies online, ABIN2544306); also called human A2AP; a2AP
T1 sequence: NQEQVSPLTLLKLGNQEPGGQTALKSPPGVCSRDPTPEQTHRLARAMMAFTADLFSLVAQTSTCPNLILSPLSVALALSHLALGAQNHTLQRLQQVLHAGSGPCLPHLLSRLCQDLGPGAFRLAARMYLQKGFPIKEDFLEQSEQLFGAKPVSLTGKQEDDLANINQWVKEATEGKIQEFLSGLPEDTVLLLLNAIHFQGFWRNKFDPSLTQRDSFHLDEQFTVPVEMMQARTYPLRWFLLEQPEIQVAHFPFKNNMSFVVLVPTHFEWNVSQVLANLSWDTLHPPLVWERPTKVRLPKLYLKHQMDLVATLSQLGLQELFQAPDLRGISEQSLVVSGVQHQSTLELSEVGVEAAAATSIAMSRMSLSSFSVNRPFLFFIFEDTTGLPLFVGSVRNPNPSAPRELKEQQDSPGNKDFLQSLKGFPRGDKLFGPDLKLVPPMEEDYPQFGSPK
Assay: ELISA, coated antigen, 2nd exp.
// returns pEC50 (minus log10 of molar concentration), number only

>  <binder>
TPP-14305 hIgG1 (antibody, V domains shown) VH: EVQLLESGGGLVQPGGSLRLSCAASGFTFDDYAMSWVRQAPGKGLEWVSAIGTGGGTYYADSVKGRFTISRDNSKNTLYLQMNSLRAEDTAVYYCAREGYDSSGYYHLDYWGQGTLVTVSS VL: QSVLTQPPSASGTPGQRVTISCTGSSSNIGATYDVHWYQQLPGTAPKLLIYSNNQRPSGVPDRFSGSKSGTSASLAISGLRSEDEADYYCWAWDDSLSGWVFGGGTKLTVLG

>  <property_measured>
pEC50

>  <observed_measurement>
7.80

$$$$
>  <binder>
TPP-14298 hIgG1 (antibody, V domains shown) VH: EVQLLESGGGLVQPGGSLRLSCAASGFTFDDYAMSWVRQAPGKGLEWVSAIGTGGGTYYADSVKGRFTISRDNSKNTLYLQMNSLRAEDTAVYYCASEYYDSSGYYHLDYWGQGTLVTVSS VL: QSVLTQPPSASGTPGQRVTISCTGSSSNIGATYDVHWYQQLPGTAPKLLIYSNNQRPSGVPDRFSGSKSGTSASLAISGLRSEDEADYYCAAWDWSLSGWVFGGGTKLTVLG

>  <property_measured>
pEC50

>  <observed_measurement>
7.21

$$$$
>  <binder>
TPP-14313 hIgG1 (antibody, V domains shown, Human IgG1 lambda) VH: EVQLLESGGGLVQPGGSLRLSCAASGFTFDDYAMSWVRQAPGKGLEWVSAIGTGGGTYYADSVKGRFTISRDNSKNTLYLQMNSLRAEDTAVYYCAREYYDSSGYYHLVYWGQGTLVTVSS VL: QSVLTQPPSASGTPGQRVTISCTGSSSNIGATYDVHWYQQLPGTAPKLLIYSNNQRPSGVPDRFSGSKSGTSASLAISGLRSEDEADYYCAAWDWSLSGWVFGGGTKLTVL

>  <property_measured>
pEC50

>  <observed_measurement>
7.46

$$$$

Could you now consider this next binder?
Task: Param item = TPP-14318 hIgG1 (antibody, V domains shown) VH: EVQLLESGGGLVQPGGSLRLSCAASGFTFDDYAMSWVRQAPGKGLEWVSAIGTGGGTYYADSVKGRFTISRDNSKNTLYLQMNSLRAEDTAVYYCAREYYDSSGYYHLEYWGQGTLVTVSS VL: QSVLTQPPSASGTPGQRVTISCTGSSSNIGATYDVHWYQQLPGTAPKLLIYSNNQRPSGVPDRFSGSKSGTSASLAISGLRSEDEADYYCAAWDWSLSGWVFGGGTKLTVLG ; retrieve measured pEC50.
Output: 7.23
